Provide the recorded binding (% of control) for the entries that follow.
System: anti-desmoglein-3 scFv antibody binding to human DSG3
measurement.notes: blockers of pathogenic pemphigus antibody–desmoglein-3 binding – biochemical, validation compound set, bead-based, flow cytometry, pilot screen (AID 588368);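 also: signal is the median channel fluorescence of bead-bound GFP antibody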
applied.conditions: Protein G beads, DSG3-Fc, scFv-GFP binding, at 10 µM, hits give low values
Give just the number in %; leave the unit off.

Consider the compound CCOc1ncnc2c1[nH]c1ccccc12 and give its measured binding (% of control).
98.9

Consider the compound CCNC(=O)C(Cc1ccccc1)NC(=O)OCc1ccccc1 (stereo unspecified) and give its measured binding (% of control).
108

Consider the compound O=C(Nc1ccccc1C(=O)N1CCCCCC1)c1ccccc1Cl and give its measured binding (% of control).
100

Consider the compound CC(=O)Oc1c2occc2cc2ccc(=O)oc12 and give its measured binding (% of control).
101

Consider the compound CC(C)C12CN3CC(C(C)C)(CN(C1)C31C(=O)Nc3ccccc31)C2=O (stereo unspecified) and give its measured binding (% of control).
103

Consider the compound CSCCC(NC(C)=O)C(=O)Oc1ccc2c3c(c(=O)oc2c1)CCCC3 (stereo unspecified) and give its measured binding (% of control).
93.2

Consider the compound CCOC(=O)C1C(=O)OC(C)(C)C1C(C)C(=O)c1ccc(C)cc1 (stereo unspecified) and give its measured binding (% of control).
102

Consider the compound CC(C)(C)C(=O)Nc1cccc(OC(F)(F)C(F)Cl)c1 (stereo unspecified) and give its measured binding (% of control).
99.5

Consider the compound Cc1ccc(/C(=C\CN2CCCC2)c2ccccn2)cc1 and give its measured binding (% of control).
108

Consider the compound CC(C)C(CCN1C(=O)CCC1=O)C1CCOC(C)(C)C1 (stereo unspecified) and give its measured binding (% of control).
98.8

Consider the compound COc1ccc(O)c(C2=Nc3ccccc3N=C(c3ccccc3)C2)c1 and give its measured binding (% of control).
96.9

Consider the compound Cc1ccc(S(=O)(=O)N[C@@H](Cc2ccccc2)C(=O)CCl)cc1 and give its measured binding (% of control).
99

Consider the compound CCn1c(SCC(=O)c2ccccc2)nc2ccccc2c1=O and give its measured binding (% of control).
99.6

Consider the compound Cc1ccc(Cl)c(Nc2ccccc2C(=O)O)c1Cl and give its measured binding (% of control).
103

Consider the compound C[N+](C)(C)CCCCCCCCCC[N+](C)(C)C and give its measured binding (% of control).
101

Consider the compound CN(C)[C@@H]1C(=O)C(C(N)=O)=C(O)[C@@]2(O)C(=O)C3=C(O)c4c(O)ccc(Cl)c4[C@@H](O)[C@H]3C[C@@H]12 and give its measured binding (% of control).
101

Consider the compound COc1ccc(/C=C/C(=O)c2cc3cccc(OC)c3oc2=O)cc1 and give its measured binding (% of control).
96

Consider the compound CC(C)C(=O)Nc1ccc2c3c(cccc13)CC2 and give its measured binding (% of control).
94.9

Consider the compound CC1(C)CC(=O)C2=C(C1)c1c(ccc3ccccc13)NC2c1ccco1 (stereo unspecified) and give its measured binding (% of control).
104

Consider the compound O=C1CCCN1C(=O)CCC(=O)N1CCCC1=O and give its measured binding (% of control).
95.6

Consider the compound O=C(O)c1ccc(-c2ccc(O)c(F)c2)cc1 and give its measured binding (% of control).
97.9

Consider the compound CCNC1=C(Cl)C(=O)c2ccccc2C1=O and give its measured binding (% of control).
104

Consider the compound Cc1ccc(S(=O)(=O)NC(C(=O)Oc2cc3oc(=O)cc(C)c3cc2Cl)C(C)C)cc1 (stereo unspecified) and give its measured binding (% of control).
98.7

Consider the compound Cc1cccc(-c2ncc(CN3CCN(CC(C)C)C(CCO)C3)cn2)c1 (stereo unspecified) and give its measured binding (% of control).
101

Consider the compound COc1ccc(/C=C/C(=O)Nc2ccccc2C(=O)O)cc1OC and give its measured binding (% of control).
96.9

Consider the compound CC(=O)[C@@]1(O)CC[C@H]2[C@@H]3CCC4=CC(=O)CC[C@]4(C)[C@H]3[C@@H](O)C[C@@]21C and give its measured binding (% of control).
100

Consider the compound COc1cc(CO)ccc1OCc1nnnn1-c1ccc(C)cc1 and give its measured binding (% of control).
97.3

Consider the compound CCOC(=O)Cn1c(C)cc(=O)c2ccccc21 and give its measured binding (% of control).
92.6

Consider the compound COC(=O)c1ccccc1NC(=O)NCc1ccccc1 and give its measured binding (% of control).
104

Consider the compound COc1ccc(CCN(C)Cc2nc(Cc3ccc(OC)c(OC)c3)no2)cc1OC and give its measured binding (% of control).
98.8

Consider the compound COc1cc(NC(=S)NC(=O)c2cccs2)ccc1NC(=O)C(C)C and give its measured binding (% of control).
96.8

Consider the compound COc1ccc(/C=C(/C#N)c2cccnc2)cc1OC and give its measured binding (% of control).
105

Consider the compound OC(CCN1CCCCC1)(c1ccccc1)c1ccccc1 and give its measured binding (% of control).
103

Consider the compound CSCCC(NC(=O)/C(=C/c1ccc2c(c1)OCO2)NC(=O)c1cccc([N+](=O)[O-])c1)C(=O)O (stereo unspecified) and give its measured binding (% of control).
105

Consider the compound O=C(O)C1CCN(C(=O)COc2ccc3c4c(c(=O)oc3c2)CCC4)CC1 and give its measured binding (% of control).
109

Consider the compound Brc1c(NC2=NCCN2)ccc2nccnc12 and give its measured binding (% of control).
102

Consider the compound CCOc1ccc(OCCSc2nc3ccccc3[nH]2)cc1 and give its measured binding (% of control).
98.7

Consider the compound CCCNCC(O)COc1ccccc1C(=O)CCc1ccccc1 (stereo unspecified) and give its measured binding (% of control).
100

Consider the compound Clc1ccc2c(c1)[C@H]1OCC[C@H]1[C@@H](c1ccco1)N2 and give its measured binding (% of control).
104

Consider the compound COc1ccc(-c2[nH]ncc2CN(C)C(C)c2ccon2)c(OC)c1 (stereo unspecified) and give its measured binding (% of control).
105

Consider the compound COC(=O)C1=NN(C(=O)c2cccc(Br)c2)C(O)(c2ccc(Cl)cc2)C1 (stereo unspecified) and give its measured binding (% of control).
109

Consider the compound COc1cc(NC(=O)COc2ccccc2)c(OC)cc1NC(C)=O and give its measured binding (% of control).
110

Consider the compound COc1ccc(NC(=O)C2CCCN2C(=O)OC(C)(C)C)cc1 (stereo unspecified) and give its measured binding (% of control).
102

Consider the compound CC(=O)NC1C(OCc2ccccc2)OC(COC(C)=O)C(OC(C)=O)C1OC(C)=O (stereo unspecified) and give its measured binding (% of control).
104

Consider the compound CC1(C)CC(c2csc(N)n2)CCO1 (stereo unspecified) and give its measured binding (% of control).
93.3

Consider the compound CCOc1ccc2ccccc2c1CNc1nnnn1C and give its measured binding (% of control).
98.4
